# credit: patent US20230105212A1

Please go through the items and note down their ΔTm at 10 µM.
# measurement-target: human PD-L1 protein (Homo sapiens, UniProt Q9NZQ7)
# Construct: purchased Acro Biosystems PD1-H5229
# Sequence (Q9NZQ7 19-238 limits assumed): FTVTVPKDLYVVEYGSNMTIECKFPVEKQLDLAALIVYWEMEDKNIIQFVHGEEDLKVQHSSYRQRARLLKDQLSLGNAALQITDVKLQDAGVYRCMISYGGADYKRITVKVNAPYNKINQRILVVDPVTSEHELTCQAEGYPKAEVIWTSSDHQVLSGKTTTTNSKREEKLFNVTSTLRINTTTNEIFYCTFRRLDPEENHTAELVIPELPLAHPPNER
# protocol-text: Thermal shift: melting temperature of PD-L1 protein
# Assay type: binding
# experimental-parameters: compound 10 μM, PD-L1 protein 2 μM, Tm minus DMSO vehicle control; read-out: ΔTm (° C.)
# Protocol: Test Embodiment 4. Test of Combination of the Compounds of the Present Disclosure to Improve the Stability (Melting Temperature) of PD-L1 Protein Experimental purpose: To test the ability of compounds to enhance the stability of PD-L1 protein and increase the melting temperature of the protein. Experimental method: […] A solution containing […] HEPES, SYPRO Orange, and 150 mM NaCl was prepared as experimental buffer, and human PD-L1 protein was added at a final concentration of 2 μM. […]
A complete answer gives the number followed by the unit.

Data request: Data request, read-out ΔTm at 10 µM, for "COc1nc(-c2cccc(-c3cccc(NC(=O)c4nc5c(n4C)CCN(C)C5)c3Cl)c2Cl)ccc1CN1CCC(C#N)CC1"
Data returned: 14.6 °C

Data request: Data request, read-out ΔTm at 10 µM, for "CCn1c(C(=O)Nc2cccc(-c3cccc(-c4ccc(CNC5COC5)c(OC)n4)c3Cl)c2Cl)nc2c1CCN(C)C2"
Data returned: 10.6 °C

Data request: Data request, read-out ΔTm at 10 µM, for "COc1nc(-c2cccc(-c3cccc(NC(=O)c4nc5c(n4C)CCN(C)C5)c3Cl)c2Cl)cnc1CN1CC(NC(C)=O)C1"
Data returned: 13.7 °C

Data request: Data request, read-out ΔTm at 10 µM, for "CCn1c(C(=O)Nc2cccc(-c3cccc(-c4ccc(CN5CC6(C5)CN(C(C)=O)C6)c(OC)n4)c3Cl)c2Cl)nc2c1CCN(C)C2"
Data returned: 10.8 °C

Data request: Data request, read-out ΔTm at 10 µM, for "COc1nc(-c2cccc(-c3cccc(NC(=O)c4nc5c(n4C)CCN(C)C5)c3Cl)c2Cl)ccc1CN1CC2(CN(C=O)C2)C1"
Data returned: 12.3 °C

Data request: Data request, read-out ΔTm at 10 µM, for "COc1nc(-c2cccc(-c3cccc(NC(=O)c4nc5c(n4C)CCN(C)C5)c3Cl)c2Cl)cnc1CN1CC(F)C1"
Data returned: 13 °C

* * *

Please go through the items and note down their Tmax.
# protocol-text: Pharmacokinetics test in Balb/C mice
# Assay type: in vivo
# experimental-parameters: male, mouse, po, p.o. 5 mg/kg, plasma, read-out: Peak time tmax
Express your answer in h, writing the number without its unit.

Data request: Data request, read-out Tmax, for COc1nc(-c2cccc(-c3cccc(NC(=O)c4nc5c(n4C)CCN(C)C5)c3Cl)c2Cl)ccc1CN[C@@H]1CCCC[C@@H]1O [Embodiment 176]
Data returned: 2

Data request: Data request, read-out Tmax, for COc1nc(-c2cccc(-c3cccc(NC(=O)c4nc5c(n4C)CCN(C)C5)c3Cl)c2Cl)ccc1CN[C@H]1CCOC[C@@H]1O (relative stereo) [Embodiment 175]
Data returned: 6

Data request: Data request, read-out Tmax, for COc1nc(-c2cccc(-c3cccc(NC(=O)c4nc5c(n4C)CCN(C)C5)c3Cl)c2Cl)ncc1CN1CC(CO)C1 [Embodiment 223]
Data returned: 1

Data request: Data request, read-out Tmax, for COc1nc(-c2cccc(-c3cccc(NC(=O)c4nc5c(n4C)CCN(C)C5)c3Cl)c2Cl)ccc1CN1CC(F)C1 [Embodiment 120]
Data returned: 2

Data request: Data request, read-out Tmax, for COc1nc(-c2cccc(-c3cccc(NC(=O)c4nc5c(n4C)CCN(C)C5)c3Cl)c2Cl)cnc1CN1CC2(C1)CN(C(C)=O)C2 [Embodiment 152]
Data returned: 8

Data request: Data request, read-out Tmax, for COc1nc(-c2cccc(-c3cccc(NC(=O)c4nc5c(n4C)CCN(C)C5)c3Cl)c2Cl)ccc1CNC[C@H](C)O [Embodiment 127]
Data returned: 6

Data request: Data request, read-out Tmax, for COc1nc(-c2cccc(-c3cccc(NC(=O)c4nc5c(n4C)CCN(C)C5)c3Cl)c2Cl)ncc1CN1CC(CNC(C)=O)C1 [Embodiment 225]
Data returned: 2

Data request: Data request, read-out Tmax, for COc1nc(-c2cccc(-c3cccc(NC(=O)c4nc5c(n4C)CCN(C)C5)c3Cl)c2Cl)ccc1CN1CC2(C1)CN(C(=O)C(C)C)C2 [Embodiment 186]
Data returned: 2

Data request: Data request, read-out Tmax, for COc1nc(-c2cccc(-c3cccc(NC(=O)c4nc5c(n4C)CCN(C)C5)c3Cl)c2Cl)ccc1CN1CC2(C1)CN(C(C)=O)C2 [Embodiment 123]
Data returned: 4

Data request: Data request, read-out Tmax, for COc1nc(-c2cccc(-c3cccc(NC(=O)c4nc5c(n4C)CCN(C)C5)c3Cl)c2Cl)ccc1CN1CC2(CC(NC(C)=O)C2)C1 [Embodiment 234]
Data returned: 2

Data request: Data request, read-out Tmax, for COc1nc(-c2cccc(-c3cccc(NC(=O)c4nc5c(n4C)CCN(C)C5)c3Cl)c2Cl)ccc1CN1CC(NC(C)=O)C1 [Embodiment 180]
Data returned: 2

Data request: Data request, read-out Tmax, for COc1nc(-c2cccc(-c3cccc(NC(=O)c4nc5c(n4C)CCN(C)C5)c3Cl)c2Cl)ccc1CN1CC2(COC2)C1 [Embodiment 124]
Data returned: 4

Data request: Data request, read-out Tmax, for COc1nc(-c2cccc(-c3cccc(NC(=O)c4nc5c(n4C)CCN(C)C5)c3Cl)c2Cl)ccc1CN1CC(C(=O)N(C)C)C1 [Embodiment 183]
Data returned: 6

Data request: Data request, read-out Tmax, for COc1nc(-c2cccc(-c3cccc(NC(=O)c4nc5c(n4C)CCN(C)C5)c3Cl)c2Cl)ccc1CNC1COC1 [Embodiment 114]
Data returned: 2

Data request: Data request, read-out Tmax, for COc1nc(-c2cccc(-c3cccc(NC(=O)c4nc5c(n4C)CCN(C)C5)c3Cl)c2Cl)ccc1CN1CC2(CCC(=O)N2)C1 [Embodiment 126]
Data returned: 2
